OD450 values for the binders below.
molecular target: T1, human MSLN-R3 protein (human, UniProt Q13421 487-598); assay: ELISA on coated antigen, antibody 0.01 nM
T1 construct: also called hMSLN-R3
T1 sequence (Q13421 495-606, form in doubt): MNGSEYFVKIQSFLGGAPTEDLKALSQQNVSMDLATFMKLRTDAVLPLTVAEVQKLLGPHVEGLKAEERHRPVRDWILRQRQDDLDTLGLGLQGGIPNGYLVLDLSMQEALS
# output: bare number, implied unit OD450

F7.44.20-H5 (scFv, not shown: small tags and cut ends, also called S009-F7.44.20 humanized antibody VH1a + VL1) scFv: EVQLVQSGAEVKKPGASVKVSCKASGYTFTDYNMDWVRQAPGQGLEWMGDINPSTGGTIYNQKFQGRVTMTEDKSTSTVYMELSSLRSEDTAVYYCARRRIGTGYFDVWGQGTTVTVSSGGGGSGGGGSGGGGSEIVLTQSPDFQSVTPKEKVTITCSASSSVISSYLSWYQQKPDQSPKLLIYRTSNLASGVPSRFSGSGSGTDFTLTINSLEAEDAATYYCHQWSSFPYTFGGGTKVEIK = 0.04

# ---- query binder ----
Fill in: OD450 of F7.44.20-H4 (scFv, not shown: small tags and cut ends, also called S009-F7.44.20 humanized antibody VH1 + VL4) scFv: EVQLVQSGAEVKKPGASVKVSCKASGYTFTDYNMDWVRQAPGQGLEWMGDINPSTGGTIYNQKFNGRVTMTEDKSTSTVYMELSSLRSEDTAVYYCARRRIGTGYFDVWGQGTTVTVSSGGGGSGGGGSGGGGSEIVLTQSPATLSLSPGERATLSCSASSSVISSYLSWYQQKPGSSPRLLIYRTSNLASGIPARFSGSGSGTDYTLTISSLEPEDFAVYYCHQWSSFPYTFGGGTKVEIK is ___
0.04

Where these numbers come from: patent US20250250357A1
